These entries and their values trace back to patent US6187787A.

IC50 overview
System: L1210 murine leukemia cells
Assay: Cytotoxicity in the murine leukemia cell line L1210 (growth inhibition, 72 hours)
Assay type: cell-based
Conditions: Mus musculus, L1210, 72 h, read-out: ID50
Method: Using the methodologies disclosed by Jaycox et al. J. Heterocyclic. […] A number of intercalating agents currently in clinical use for treatment of cancer were also evaluated in this assay for comparison. L1210 murine leukemia cells were routinely maintained as suspension cultures in McCoy's 5A medium supplemented with 10% horse serum, glutamine, penicillin, and streptomycin and grown in a humidified environment of 10% carbon dioxide and 90% air at 37° C. […]
Could you give me the number in µM? Just the number is fine.

molecule | value.measured
Cn1cc(NC(=O)c2cc(NC(=O)c3cc(NC=O)cn3C)cn2C)cc1C(=O)NCCC(=N)N [distamycin-A, reference compound] | 6

Shift focus to the following entry.
Lookup: Return reported IC50; argument: CC[n+]1c(-c2ccccc2)c2cc(N)ccc2c2ccc(N)cc21 [ethidium bromide, reference compound]
Found: 4.1

====

test system: L1210 murine leukemia cells; experiment: Cytotoxicity in the murine leukemia cell line L1210 (growth inhibition, 72 hours); assay type: cell-based; settings: Mus musculus; L1210 murine leukemia; 72 hours of continuous exposure; concentration which inhibits growth of 50% of the cells; read-out: ID50 (the source's name)
pIC50 overview
Worth noting: pIC50 values are minus log10 of concentrations stated in mol/L.

molecule | pIC50
c1ccc2c(N[C@H]3CC[C@@H](C[C@H]4CC[C@H](Nc5c6ccccc6nc6ccccc56)CC4)CC3)c3ccccc3nc2c1 | 6.25
c1ccc2c(N[C@H]3CC[C@H](C[C@H]4CC[C@H](Nc5c6ccccc6nc6ccccc56)CC4)CC3)c3ccccc3nc2c1 | 6.30
Nc1c2ccccc2nc2ccccc12 [9-aminoacridine] | 5.64

Lookup: Return reported pIC50; argument: c1ccc2c(N[C@H]3CC[C@@H](C[C@H]4CC[C@@H](Nc5c6ccccc6nc6ccccc56)CC4)CC3)c3ccccc3nc2c1
Found: 6.36

Lookup: Return reported pIC50; argument: CC(C)(c1ccc(Oc2ccc(Nc3c4ccccc4nc4ccccc34)cc2)cc1)c1ccc(Oc2ccc(Nc3c4ccccc4nc4ccccc34)cc2)cc1
Found: 5.27

====

Test system: L1210 murine leukemia cells
Experiment: Cytotoxicity in the murine leukemia cell line L1210 (growth inhibition, 72 hours)
Format: cell-based
Details: Mus musculus; L1210 murine leukemia; 72 hours of continuous exposure; concentration which inhibits growth of 50% of the cells; read-out: ID50 (the source's name)
Method: Using the methodologies disclosed by Jaycox et al. J. Heterocyclic. […] A number of intercalating agents currently in clinical use for treatment of cancer were also evaluated in this assay for comparison. L1210 murine leukemia cells were routinely maintained as suspension cultures in McCoy's 5A medium supplemented with 10% horse serum, glutamine, penicillin, and streptomycin and grown in a humidified environment of 10% carbon dioxide and 90% air at 37° C. […]
property: pIC50
Worth noting: pIC50 values are minus log10 of concentrations stated in mol/L.

compound | pIC50
c1cc(Nc2c3ccccc3nc3ccccc23)cc(Oc2cccc(Oc3cccc(Nc4c5ccccc5nc5ccccc45)c3)c2)c1 | 5.23
Cc1c2ccncc2c(C)c2c1[nH]c1ccccc12 [ellipticine, reference compound] | 6.28

Shift focus to the following entry.
Lookup: Return reported pIC50; argument: Cc1cc2cccnc2c2ncccc12 [5-methyl-1,10-phenanthroline, reference compound]
Found: 5.70
